- System: MCF7
- test description: Cytotoxic activity against human MCF-7 cells
- Format: cell-based
reported endpoint: log10 Activity (log10 of the value in µM)

>  <compound>
C=C/C(C)=C/C[C@]1(C)[C@H](C)C[C@H](OC)[C@@]2(C=O)C(C=O)=C[C@H](OC(=O)C(C)CC)C[C@@H]12 (stereo partly drawn)

>  <measurement target>
MCF7

>  <data value>
0.98

$$$$
>  <compound>
C=C/C(C)=C/C[C@]1(C)[C@H](C)C[C@H](OC(=O)c2ccccc2)[C@@]23C(=C[C@H](OC(=O)C(C)CC)C[C@@H]12)C(OC(C)=O)OC3OC(C)=O (stereo partly drawn)

>  <measurement target>
MCF7

>  <data value>
1.44

$$$$
>  <compound>
CCCCCCCC/C=C\CCCCCC[C@@H]1C(=O)O[C@@H](C)[C@H]1O

>  <measurement target>
MCF7

>  <data value>
1.82

$$$$
>  <compound>
C=C/C(C)=C/C[C@]1(C)[C@H](C)C[C@H](O)[C@@]23C(=C[C@@H](OC(=O)C(C)CC)C[C@@H]12)C(OC(C)=O)OC3OC(C)=O (stereo partly drawn)

>  <measurement target>
MCF7

>  <data value>
-0.07

$$$$
>  <compound>
C=C/C(C)=C/C[C@]1(C)[C@H](C)C[C@H](OC)[C@@]23C(=C[C@H](OC(=O)C(C)CC)C[C@@H]12)C(OC(C)=O)OC3OC(C)=O (stereo partly drawn)

>  <measurement target>
MCF7

>  <data value>
0.64

$$$$
>  <compound>
COc1cccc2c1C(=O)c1c(O)c3c(c(O)c1C2=O)C[C@@](O)(C(=O)CO)C[C@@H]3O[C@H]1C[C@H](N)[C@H](O)[C@H](C)O1 [DOXORUBICIN]

>  <measurement target>
MCF7

>  <data value>
-0.40

$$$$
>  <compound>
C=C/C(C)=C/C[C@]1(C)[C@H](C)C[C@H](O)[C@@]23C(=C[C@H](OC(=O)C(C)CC)C[C@@H]12)C(OC(C)=O)OC3OC(C)=O (stereo partly drawn)

>  <measurement target>
MCF7

>  <data value>
0.19

$$$$
>  <compound>
C=C/C(C)=C/C[C@]1(C)[C@H](C)C[C@H](OC(=O)c2ccccc2)[C@@]23C(=C[C@H](OC(=O)C(C)C)C[C@@H]12)C(OC(C)=O)OC3OC(C)=O (stereo partly drawn)

>  <measurement target>
MCF7

>  <data value>
1.25

$$$$
